Reference for the values: the supplement of paper PMC8882468

Below, each of the compounds is paired with its reported CTG-3D luminescence at 96 h value.
System: HCI-027 (organoid from a triple-negative breast cancer xenograft)
Assay protocol: CTG-3D luminescence at 96 h relative to day-0 seeding control (ratio to day 0); higher = more growth / less cytotoxicity; PDxO 3D drug screen, 96 h, CTG-3D normalised to day-0 seeding control.
Condition description: 12.5 pM; days in culture: 194
Give your answer as a number; write no unit.

Known results for compounds:
Cc1cc(Nc2ncnc3ccc(NC4=NC(C)(C)CO4)cc23)ccc1Oc1ccn2ncnc2c1 | 1.81
O=C(/C=C/c1cccnc1)NCCCCC1CCN(C(=O)c2ccccc2)CC1 | 1.77
CNC(=O)c1cccc(-c2ccc3c(N4CCOC[C@@H]4C)nc(N4CCOC[C@@H]4C)nc3n2)c1 | 1.93
CCN(c1cc(C#CCN2CCOCC2)cc(C(=O)NCc2c(C)cc(C)[nH]c2=O)c1C)[C@H]1CC[C@H](N(C)CCOC)CC1 | 2.66

# input for lookup
Return the recorded CTG-3D luminescence at 96 h value; entry: C[C@H](NC(=O)CCC(F)(F)F)C(=O)N[C@@H]1C(=O)N(CCO)c2ncccc2-c2ccccc21 1.84

* * *

System: HCI-002 (organoid from a triple-negative breast cancer xenograft)
Assay protocol: CTG-3D luminescence at 96 h relative to day-0 seeding control (ratio to day 0); higher = more growth / less cytotoxicity; PDxO 3D drug screen, 96 h, CTG-3D normalised to day-0 seeding control.
Condition description: 12.5 pM; days in culture: 82
Quantity kind: CTG-3D luminescence at 96 h

COc1cccc2c1C(=O)c1c(O)c3c(c(O)c1C2=O)C[C@@](O)(C(=O)CO)C[C@@H]3O[C@H]1C[C@H](N)[C@H](O)[C@H](C)O1 | 3.24
CC(C)n1nc(-c2ccc3oc(N)nc3c2)c2c(N)ncnc21 | 3.4

Note down CTG-3D luminescence at 96 h recorded for C[C@H](NC(=O)CCC(F)(F)F)C(=O)N[C@@H]1C(=O)N(CCO)c2ncccc2-c2ccccc21 3.27

State its CTG-3D luminescence at 96 h: C[C@@H]1COCCN1c1cc(C2([S@](C)(=N)=O)CC2)nc(-c2cc[nH]c3nccc2-3)n1 2.71

Report CTG-3D luminescence at 96 h for CCN(c1cc(C#CCN2CCOCC2)cc(C(=O)NCc2c(C)cc(C)[nH]c2=O)c1C)[C@H]1CC[C@H](N(C)CCOC)CC1 3.83

Tell me measured CTG-3D luminescence at 96 h for COc1cc2c(Oc3ccc4[nH]c(C)cc4c3F)ncnc2cc1OCCCN1CCCC1 please. 2.68

// fetch CTG-3D luminescence at 96 h given entry CCc1c2c(nc3ccc(O)cc13)-c1cc3c(c(=O)n1C2)COC(=O)[C@]3(O)CC 3.04

* * *

Tested on: HCI-023 (organoid from a triple-negative breast cancer xenograft)
Assay protocol: CTG-3D luminescence at 96 h relative to day-0 seeding control (ratio to day 0); higher = more growth / less cytotoxicity; PDxO 3D drug screen (set 2), 96 h, CTG-3D normalised to day-0 seeding control.
Condition description: 625 fM; days in culture: 252
// not fulfilled strictly below 2 in CTG-3D luminescence at 96 h; fulfilled otherwise

Reference set (2 entries):
CC(=O)O[C@@]12CO[C@@H]1C[C@H](O)[C@@]1(C)C(=O)[C@H](O)C3=C(C)[C@@H](OC(=O)[C@H](O)[C@@H](NC(=O)OC(C)(C)C)c4ccccc4)C[C@@](O)([C@@H](OC(=O)c4ccccc4)[C@H]21)C3(C)C | not fulfilled
CS(=O)(=O)CCNCc1ccc(-c2ccc3ncnc(Nc4ccc(OCc5cccc(F)c5)c(Cl)c4)c3c2)o1 | not fulfilled

Now for another entry.
Is the recorded value of CTG-3D luminescence at 96 h equal to or greater than 2 for this compound? Nc1cc(C(F)(F)F)c(-c2cc(N3CCOCC3)nc(N3CCOCC3)n2)cn1 fulfilled
